What IC50 was measured for each of the following?
- assay: Inhibition of SIN1-mediated peroxynitrite oxidation of luminol (L-012 assay)
- Type: biochemical
- measurementContext: from maximal luminescence at 30 min time point; read-out: IC50 (μM) (% luminol absorb. @ 30 min)

Q. Fill blank: measured IC50 of the compound Cl.O=C(O)[C@@H]1CSC(Nc2ncccc2O)=N1 [Compound 7a, hydrochloride] is ____.
A. 1.8 µM

Q. May I ask what IC50 has been recorded for CC1(C)SC(Nc2cnccc2O)=N[C@@H]1C(=O)O.Cl [Compound 12a, hydrochloride] ?
A. > 10 µM

Q. // query IC50 value for entry CC1(C)SC(Nc2cccnc2O)=N[C@H]1C(=O)O.Cl [Compound 23a, hydrochloride]
A. > 10 µM

Q. Data request, read-out IC50, for CC1(C)SC(Nc2cccnc2O)=N[C@@H]1C(=O)O.Cl [Compound 22a, hydrochloride]
A. > 10 µM

Q. Param item = CC1(C)SC(Nc2ccncc2O)=N[C@@H]1C(=O)O.Cl [Compound 17a, hydrochloride] ; retrieve measured IC50.
A. > 10 µM

Q. Need IC50, item CC1(C)SC(Nc2ncccc2O)=N[C@@H]1C(=O)O.Cl [Compound 4a, hydrochloride]
A. 1.8 µM

Q. What does the data say about its IC50? Entry: Cl.O=C(O)[C@H]1CSC(Nc2ncccc2O)=N1 [Compound 8a, hydrochloride]
A. 2.1 µM

Q. IC50 lookup needed for Cl.O=C(O)[C@@H]1CSC(Nc2cnccc2O)=N1 [Compound 25a, hydrochloride] , thanks.
A. > 10 µM

Q. Quick one: IC50 for Cl.O=C(O)[C@@H]1CSC(Nc2ccncc2O)=N1 [Compound 27a, hydrochloride] ?
A. > 10 µM

Q. Which measured IC50 value corresponds to CC1(C)SC(Nc2ccncc2O)=N[C@H]1C(=O)O.Cl [Compound 18a, hydrochloride] ?
A. > 10 µM

Q. So what's the measured IC50 for this one? CC1(C)SC(Nc2ncccc2O)=N[C@H]1C(=O)O.Cl [Compound 5a, hydrochloride]
A. 1.6 µM
